Hi there, I'd appreciate the recorded growth for every entry that follows.
system: CAKI-1 renal; assay: NCI-60 one-dose screen, 48 h (100 = growth as untreated, 0 = no growth, -100 = all killed); settings: 10 µM
Compounds without any hit were thinned out: in the full panel of roughly 83,000, 20% have a hit.
Numbers only, in %.

COc1ccc(-c2nn(-c3cccc(NC(=O)c4ccc(Cl)c(Cl)c4)c3)cc2-c2ccncc2)cc1Cl    73.1
S=C1SCC(c2ccccc2)S1 (stereo unspecified)    97.1
CCN(CC)CCC(CNc1c(C)cnc2cc(Cl)ccc12)c1ccc(Cl)cc1 (stereo unspecified)    60.1
CN(Cc1ccccc1)Cc1ccc([N+](=O)[O-])cc1I    93
Cc1cc(=O)[nH]c(N/N=C/c2ccccc2O)n1    82.3

Now take the following compound into account.
Input line: Let me know recorded growth for `CC1(C)Cc2c(sc3ncn4nc(-c5ccc(O)cc5)nc4c23)CO1` , thanks.
Output line: 76.7
